Below, each entry is listed alongside its reported inhibition at 1 µM.
# SYSTEM: TBK1 (Homo sapiens)
# Construct: purchased Life Technologies PV 3504
# Sequence (Q9UHD2 whole entry): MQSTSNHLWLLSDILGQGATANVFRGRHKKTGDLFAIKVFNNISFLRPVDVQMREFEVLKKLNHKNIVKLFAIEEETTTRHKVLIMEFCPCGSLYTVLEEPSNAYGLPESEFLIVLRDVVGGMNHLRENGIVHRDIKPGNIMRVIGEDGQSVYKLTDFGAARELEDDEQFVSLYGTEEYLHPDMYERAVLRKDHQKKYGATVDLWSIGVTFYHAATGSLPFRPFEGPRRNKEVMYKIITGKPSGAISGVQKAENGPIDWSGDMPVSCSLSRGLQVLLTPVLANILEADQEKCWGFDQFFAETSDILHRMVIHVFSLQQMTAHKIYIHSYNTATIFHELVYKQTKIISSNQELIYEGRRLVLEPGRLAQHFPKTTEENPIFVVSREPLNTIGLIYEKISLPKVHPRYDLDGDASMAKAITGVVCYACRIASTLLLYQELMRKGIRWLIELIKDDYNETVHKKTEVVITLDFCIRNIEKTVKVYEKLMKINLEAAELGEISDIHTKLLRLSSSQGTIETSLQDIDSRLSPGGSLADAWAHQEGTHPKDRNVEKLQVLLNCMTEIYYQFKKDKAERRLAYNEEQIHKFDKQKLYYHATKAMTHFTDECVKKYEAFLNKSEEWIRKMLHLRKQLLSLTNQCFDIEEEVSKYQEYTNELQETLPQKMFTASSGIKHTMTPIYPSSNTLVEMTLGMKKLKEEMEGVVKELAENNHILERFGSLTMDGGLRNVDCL
# ASSAY EXPLANATION: Z'-LYTE kinase selectivity assay TBK1
# Assay type: biochemical
# Source text: In order to compare the kinase selectivity of compounds (I) according to the invention with known prior art compounds the commercially provided SelectScreen® Kinase Profiling Service (Z′-LYTE®) was used (Life Technologies GmbH, Darmstadt, Germany) to investigate the ability of the compounds to inhibit a number of different, representatively selected human kinases. Further details regarding this service are available on the Life Technologies website at […]
// units = %; emit number, no label

Please review the entries below; each comes with its answer.
>>> test_value("C[C@@H]1Cc2nn(C)c(-c3ccccc3)c2-c2nc(Nc3ccn(CCN4CCN(CC5CCCO5)CC4)n3)ncc21 (stereo partly shown)")
57
>>> test_value("C[C@@H]1Cc2nn(C)c(-c3ccccc3)c2-c2nc(Nc3ccn(CCN4CCN(C)CC4)n3)ncc21")
38
>>> test_value("CC(O)CN1CCN(CCn2ccc(Nc3ncc4c(n3)-c3c(nn(C)c3-c3ccccc3)C[C@H]4C)n2)CC1 (stereo partly shown)")
49

Next up:
Observed inhibition at 1 µM on TBK1 (Homo sapiens), entry C[C@@H]1Cc2nn(C)c(-c3ccccc3)c2-c2nc(Nc3ccn(CCN4CCN(CC(=O)OC5CCOCC5)CC4)n3)ncc21 , equals 46

Cited source: patent US10414769B2
